All figures here come from paper PMC9482650.

# target or test system: MAGI2_2, Q86UL8
# Sequence (Q86UL8 410-522): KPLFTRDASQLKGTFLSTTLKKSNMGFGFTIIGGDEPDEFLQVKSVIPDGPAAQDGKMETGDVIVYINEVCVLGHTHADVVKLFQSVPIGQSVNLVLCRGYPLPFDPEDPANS
# assay summary: holdup assay
# Set-up: key: below the threshold = too weak to quantify, mostly under pKd 3.1 to 4
# experimental parameters: plain residues with an end cap or a label only (N-terminal biotin on a linker: ahx)
parameter measured: pKd

binder	pKd
AKPQPVDSWV [ARVCF, O00192]	below the threshold
HSATSVHTSV [MTMR1, Q13613]	3.48
SKKNELFSNL [NHERF1, O14745]	below the threshold
KEYDDELTFF [USH1C, Q9Y6N9]	below the threshold
ADENEQVSAV [RAPGEF6, Q8TEU7]	below the threshold

Find the recorded pKd belonging to PKMKLNETSF [SHKBP1, Q8TBC3] and report it.
below the threshold

Param item: SAPATLSSRA [PDLIM2, Q96JY6]
below the threshold

Param item: YNSFLSVTTV [PDZRN3, Q9UPQ7]
3.95

Param item: KDECVIATEV [DLL1, O00548]
below the threshold

Param item: VNENQKEYFF [CNTNAP4, Q9C0A0]
below the threshold
